Molecular target: T1, recombinant mouse TfR-1, His-tagged (Sino Biological 50741-M07H) (mouse, UniProt Q62351 89-763)
T1 construct: bought; His-tagged; also called mTfR1; mTfR-1
T1 sequence (Q62351 89-763 limits assumed, stated change not applied): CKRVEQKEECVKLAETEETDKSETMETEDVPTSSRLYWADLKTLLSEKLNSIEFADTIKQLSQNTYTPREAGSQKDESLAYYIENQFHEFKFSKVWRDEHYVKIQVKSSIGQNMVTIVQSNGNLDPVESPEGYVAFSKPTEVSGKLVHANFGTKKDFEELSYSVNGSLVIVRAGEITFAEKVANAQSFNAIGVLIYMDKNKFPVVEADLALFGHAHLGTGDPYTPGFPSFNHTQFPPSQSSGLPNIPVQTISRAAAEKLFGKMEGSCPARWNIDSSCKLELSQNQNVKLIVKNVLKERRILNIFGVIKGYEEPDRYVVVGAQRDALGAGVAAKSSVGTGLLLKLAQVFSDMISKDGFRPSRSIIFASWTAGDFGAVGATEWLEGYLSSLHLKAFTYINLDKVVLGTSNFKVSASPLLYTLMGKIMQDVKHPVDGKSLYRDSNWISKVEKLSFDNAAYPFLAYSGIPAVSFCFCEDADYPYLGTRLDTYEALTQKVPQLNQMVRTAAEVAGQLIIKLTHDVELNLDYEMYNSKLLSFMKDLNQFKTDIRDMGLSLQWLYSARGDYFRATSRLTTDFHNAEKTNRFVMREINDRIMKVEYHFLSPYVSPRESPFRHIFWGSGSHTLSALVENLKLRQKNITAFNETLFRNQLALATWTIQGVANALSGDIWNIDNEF
Assay: SPR, His-captured TfR1
Description: Detailed binding kinetic analyses were performed to gain a better understanding of the relationship between affinity and brain penetration of the Clone C variants. Biacore surface plasmon resonance (SPR) analysis using immobilised mouse and human TfR-1 was performed for selected clones (Table 2). Binding kinetics of VNAR-Fcs was determined by surface plasmon resonance (Biacore T200, GE Healthcare). […] Sensorgrams were fitted and kinetic constants were determined using Biacore T200 Evaluation software. […]
Recorded kon, one value per entry.
readout.type: kon (M⁻¹ s⁻¹)

1) Clone C variant 14 VNAR-hFc (Fc fusion, not shown: a dimerising Fc or GST) ARVDQTPQTITKETGESLTINCVLRDSNCALSSTYWYRKKSGSTNEENISKGGRYVETVNSGSKSFSLRINDLTVEDSGTYRCNVVQYPQQDRPFWCDVYGDGTAVTVN = 19900
2) Clone C variant 18 VNAR-hFc (Fc fusion, not shown: a dimerising Fc or GST, also called Clone C v18; Clone C var; 18) ARVDQTPQTITKETGESLTINCVLRDSNCALSSTYWYRKKSGSTNEENISKGGRYVETVNSGSKSFSLRINDLTVEDSGTYRCNVVQYPQYPNYFWCDVYGDGTAVTVN = 312000
3) Clone C variant 5 VNAR-hFc (Fc fusion, not shown: a dimerising Fc or GST) ARVDQTPQTITKETGESLTINCVLRDSNCALSSTYWYRKKSGSTNEENISKGGRYVETVNSGSKSFSLRINDLTVEDSGTYRCNVVQSPSYNNYFWCDVYGDGTAVTVN = 278000
4) Clone C variant 13 VNAR-hFc (Fc fusion, not shown: a dimerising Fc or GST, also called Clone C v13; Clone C var; 13) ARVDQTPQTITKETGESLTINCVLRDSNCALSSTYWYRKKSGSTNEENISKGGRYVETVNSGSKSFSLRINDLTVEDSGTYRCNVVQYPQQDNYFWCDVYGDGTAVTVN = 248000
